system.under.test: Stimulator of interferon genes protein (Homo sapiens, UniProt Q86WV6, G230A/R293Q/R71H)
Sequence (Q86WV6 whole entry R71H/G230A/R293Q): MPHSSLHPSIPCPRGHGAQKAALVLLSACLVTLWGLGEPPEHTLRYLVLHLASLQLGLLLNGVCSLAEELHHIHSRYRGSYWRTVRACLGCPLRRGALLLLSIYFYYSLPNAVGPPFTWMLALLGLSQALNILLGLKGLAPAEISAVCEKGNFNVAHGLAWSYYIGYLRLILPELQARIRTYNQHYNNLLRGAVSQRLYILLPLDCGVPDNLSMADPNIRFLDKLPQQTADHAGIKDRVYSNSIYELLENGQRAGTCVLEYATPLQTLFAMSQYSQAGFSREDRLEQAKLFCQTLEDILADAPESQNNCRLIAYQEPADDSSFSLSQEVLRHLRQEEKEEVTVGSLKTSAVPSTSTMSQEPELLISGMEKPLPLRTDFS
test.description: Agonist activity at human STING HAQ expressed in baculovirus infected Sf21 insect cells
reported.metric: pEC50
# pEC50: negative log10 of molar concentration; output just the value

Data request, read-out pEC50, for COc1cc2cc(C(=O)CCC(=O)O)sc2cc1OC 5.08

====

system.under.test: UniProt:Q86WV6
test.description: Activation of human STING (139 to 379 residues) expressed in THP1-Blue ISG cells at 10 uM incubated for 24 hrs by quanti-blue SEAP reporter gene assay relative to control
Type: cell-based
applied.conditions: filed as activator
reported.metric: fold change (FC)

CCn1nc(C)cc1C(=O)/N=c1\[nH]c2cc(-c3ncn[nH]3)cc(OC)c2n1[C@H]1CC[C@@H](n2/c(=N/C(=O)c3cc(C)nn3CC)[nH]c3cc(C(N)=O)cc(OCCCN4CCOCC4)c32)CC1 : 1.14
CCn1nc(C)cc1C(=O)/N=c1\[nH]c2cc(-c3ncn[nH]3)cc(OC)c2n1C/C=C/Cn1/c(=N/C(=O)c2cc(C)nn2CC)[nH]c2cc(C(N)=O)cc(OCCCO)c21 : 16.7
CCn1nc(C)cc1C(=O)/N=c1\[nH]c2cc(-c3cn(CCOCCOC)nn3)cc(OC)c2n1C/C=C/Cn1/c(=N/C(=O)c2cc(C)nn2CC)[nH]c2cc(C(N)=O)cc(OCCCN3CCOCC3)c21 : 17.2
CCn1nc(C)cc1C(=O)/N=c1\[nH]c2cc(-c3nc(C)n[nH]3)cc(OC)c2n1C/C=C/Cn1/c(=N/C(=O)c2cc(C)nn2CC)[nH]c2cc(C(N)=O)cc(OCCCN3CCOCC3)c21 : 18.8

P = CCn1nc(C)cc1C(=O)/N=c1\[nH]c2cc(C(N)=O)cc(OC)c2n1C/C=C/Cn1/c(=N/C(=O)c2cc(C)nn2CC)[nH]c2cc(-c3ncc[nH]3)cc(OCCCN3CCOCC3)c21
Q = CCn1nc(C)cc1C(=O)/N=c1\[nH]c2cc(C(N)=O)cc(OC)c2n1C/C=C/Cn1/c(=N/C(=O)c2cc(C)nn2CC)[nH]c2cc(C(N)=O)cc(OCCCN3CCOCC3)c21.Cl.Cl.Cl
R = CCn1nc(C)cc1C(=O)/N=c1\[nH]c2cc(-c3ncn[nH]3)cc(OC)c2n1CCCCn1/c(=N/C(=O)c2cc(C)nn2CC)[nH]c2cc(C(N)=O)cc(OCCCN3CCOCC3)c21
S = CCn1nc(C)cc1C(=O)/N=c1\[nH]c2cc(-c3ncn[nH]3)cc(OC)c2n1C/C=C/Cn1/c(=N/C(=O)c2cc(C)nn2CC)[nH]c2cc(-c3ncn[nH]3)cc(OCCCN3CCOCC3)c21
Hey, quick one: sort these by fold change (FC), low to high? Rank the items, then write their labels in that order. R, S, P, Q
(R: 1.28, S: 4.9, P: 17.3, Q: 26)
